So I've got a bunch of compounds here, and I need their IC50 values.
Tested on: Yersinia pestis
Experiment: Antimicrobial activity against Yersinia pestis KIM6-2082.1+ in presence of iron limiting PMH-D medium
Format: functional, organism-based
One number for each entry, in nM.

Worked cases, IC50 given:
- Cc1ccc(NC(=S)N2N=C(c3ccccc3O)C[C@H]2c2ccccc2O)cc1: 800
- COc1cc([C@@H]2CC(c3ccc(O)cc3O)=NN2C(=S)Nc2ccccc2)ccc1O: 600
- COc1cc([C@@H]2CC(c3ccccc3O)=NN2C(=S)Nc2ccccc2C)ccc1O: 3000
- Oc1ccccc1C1=NN(C(=S)Nc2ccccc2)[C@H](c2ccco2)C1: 1000
- COc1ccccc1NC(=S)N1N=C(c2ccccc2O)C[C@H]1c1ccccc1O: 2000
- Oc1ccccc1C1=NN(C(=S)Nc2ccccc2)[C@H](c2ccc(Cl)cc2)C1: 500

Give IC50 for all compounds that follow.
1. COc1cc([C@@H]2CC(c3ccc(O)cc3O)=NN2C(=S)Nc2ccccc2OC)ccc1O
2. COc1cc([C@@H]2CC(c3ccccc3O)=NN2C(=S)Nc2ccccc2OC)ccc1O
3. COc1ccccc1[C@@H]1CC(c2ccccc2O)=NN1C(=S)Nc1ccccc1

Reply:
1. 17000
2. 1000
3. 400

Give IC50 for all compounds that follow.
1. COc1ccc(NC(=S)N2N=C(c3ccc(O)cc3O)C[C@H]2c2ccc(O)c(OC)c2)cc1
2. Oc1ccccc1C1=NN(C(=S)Nc2ccccc2)[C@H](c2ccccc2O)C1

Reply:
1: 200; 2: 700

Each recorded value in this set is attributed to ChEMBL document CHEMBL1144812.
